FYI, the data here is from patent US12472263B2.

Assay Remarks: Thermodynamic solubility in PBS pH 7.4 and in 5% HSA in PBS
Type: physicochemical
Condition Info: plasma or biological fluid, thermodynamic from solid; 5% HSA in PBS pH 7.4, saturated, LC/MS; read-out: Thermodynamic solubility in 5% HSA in PBS pH 7.4
Structures can show the parent of a compound that is named as a salt.
Consider the following compounds and their measured solubility thermodynamic readings.
Lab book: enter the figure in µg/mL, no units written.

1. CN1CCCC(n2nc(Cc3ccc(Cl)cc3)c3ccccc3c2=O)CC1 (centres unmarked) [Azelastine HCl]    827
2. CCN[C@H]1CN(CCCOC)S(=O)(=O)c2sc(S(N)(=O)=O)cc21 [Brinzolamide]    387
3. CCNC(=O)CCC/C=C\C[C@@H]1[C@@H](/C=C/[C@@H](O)CCc2ccccc2)[C@H](O)C[C@@H]1O    3010
4. NC(=O)Cc1cccc(C(=O)c2ccccc2)c1N    64
5. C[C@@H]1CN([C@H]2CC[C@](C#N)(c3ccc(F)cc3)CC2)CC[C@]1(C(=O)O)c1ccccc1 [Levocabastine HCl]    83
6. CNCC(O)c1ccc(OC(=O)C(C)(C)C)c(OC(=O)C(C)(C)C)c1 (centres unmarked) [Dipivefrin HCl]    7440

Look up solubility thermodynamic of CC(=O)O[C@H]1C[C@@]2(C)[C@@H](C[C@@H](O)[C@H]3[C@@]4(C)CC[C@@H](O)[C@@H](C)[C@@H]4CC[C@@]32C)/C1=C(\CCC=C(C)C)C(=O)O and report it.
1420

Look up solubility thermodynamic of O=C(Nc1c(F)c(F)c(-c2cccc(OC(F)(F)F)c2)c(F)c1F)c1ccsc1C(=O)O and report it.
2910

###

Target Entity: human serum albumin (Homo sapiens)
Sequence (P02768 25-609): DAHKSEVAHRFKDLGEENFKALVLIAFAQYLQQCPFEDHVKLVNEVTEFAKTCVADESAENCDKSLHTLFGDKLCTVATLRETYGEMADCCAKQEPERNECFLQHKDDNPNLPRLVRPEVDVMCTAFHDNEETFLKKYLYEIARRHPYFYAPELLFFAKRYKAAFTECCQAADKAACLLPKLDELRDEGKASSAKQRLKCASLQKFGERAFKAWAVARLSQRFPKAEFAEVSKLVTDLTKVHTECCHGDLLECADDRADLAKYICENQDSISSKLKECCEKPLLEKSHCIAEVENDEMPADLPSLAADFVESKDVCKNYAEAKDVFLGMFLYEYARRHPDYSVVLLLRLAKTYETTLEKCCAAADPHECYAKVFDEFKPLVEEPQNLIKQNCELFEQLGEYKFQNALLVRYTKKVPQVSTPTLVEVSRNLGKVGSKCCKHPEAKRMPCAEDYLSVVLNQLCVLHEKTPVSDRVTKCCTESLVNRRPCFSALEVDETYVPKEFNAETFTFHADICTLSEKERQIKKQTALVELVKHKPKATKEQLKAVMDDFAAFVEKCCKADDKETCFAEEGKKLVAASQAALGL
Assay Remarks: Binding of PP-001 to albumin, rapid equilibrium dialysis (RED) assay
Type: in vitro ADME
Condition Info: PP-001/human serum albumin formulation, pH 7.4; formulation dosed in the rabbit PK study
Measurement Name: fraction unbound at 5 h, 3 mg/ml

Supply fraction unbound at 5 h, 3 mg/ml measured with human serum albumin (Homo sapiens) for O=C(Nc1c(F)c(F)c(-c2cccc(OC(F)(F)F)c2)c(F)c1F)c1ccsc1C(=O)O [PP-001] .
< 0.05

###

Assay Remarks: PK study in rabbits after topical ocular administration
Format: in vivo, New Zealand White rabbits
Condition Info: female, New Zealand White, rabbit, plasma, topical, 35 μL drop of 3 mg/ml per eye; one 35 μL drop of formulation 1 (3 mg/ml PP-001) in both eyes
Measurement Name: Cmax

Look up Cmax of O=C(Nc1c(F)c(F)c(-c2cccc(OC(F)(F)F)c2)c(F)c1F)c1ccsc1C(=O)O [PP-001] and report it.
< 9 ng/mL

###

Target Entity: HSA (human serum albumin) (Homo sapiens)
Sequence (P02768 25-609): as above
Assay Remarks: Binding of different pharmaceutically active compounds to albumin, RED assay
Assay type: in vitro ADME
Condition Info: isolated protein, 5 h, pH 7.4
Measurement Name: % bound

Consider the worked cases shown below.
1) O=C(Nc1c(F)c(F)c(-c2cccc(OC(F)(F)F)c2)c(F)c1F)c1ccsc1C(=O)O    99.9%
2) CCN[C@H]1CN(CCCOC)S(=O)(=O)c2sc(S(N)(=O)=O)cc21 [Brinzolamide]    70.3%
3) CCNC(=O)CCC/C=C\C[C@@H]1[C@@H](/C=C/[C@@H](O)CCc2ccccc2)[C@H](O)C[C@@H]1O    77.6%
4) CC(=O)OCC(=O)[C@@]1(O)CC[C@H]2[C@@H]3CCC4=CC(=O)C=C[C@]4(C)[C@H]3[C@@H](O)C[C@@]21C [Prednisolone acetate]    94.3%

Look up % bound of CC(=O)O[C@H]1C[C@@]2(C)[C@@H](C[C@@H](O)[C@H]3[C@@]4(C)CC[C@@H](O)[C@@H](C)[C@@H]4CC[C@@]32C)/C1=C(\CCC=C(C)C)C(=O)O and report it.
95.7%
